Experiment: Effective concentration dissolved in DMSO against HRV serotype 39 in OH-I cells by multiple-cycle CPE inhibition assay; microscopic
Format: functional, cell-based, Homo sapiens
Criterion: EC50 strictly under 40 µM. Met: Satisfied. Not met: Not satisfied.

Please check: EC50 for COc1cc2c(cc1OC)C(C)N(C(=O)Nc1ccc(OC(F)(F)F)cc1)CC2 (stereo unspecified) , strictly under 40 µM or not?
Not satisfied

And what about the compound CC1(C)CCc2cc(CN3CCN(c4ncc(C(F)(F)F)cc4Cl)CC3)ccc2O1 ?
Satisfied

And what about the compound CC1(C)CCc2cc(CN3CCN(c4ccc(C(F)(F)F)cn4)CC3)ccc2O1 ?
Satisfied

And what about the compound Cc1csc2c(N3CCN(C(=O)Nc4ccc(OC(F)(F)F)cc4)CC3)ncnc12 ?
Satisfied

And what about the compound COC(=O)c1ccc(CSc2nnc(-c3ccc4ncccc4c3)n2C)cc1 ?
Not satisfied

And what about the compound O=C(Nc1ccc(SC(F)(F)F)cc1)Nc1ccc(-n2ccc(C(F)(F)F)n2)cc1 ?
Not satisfied

----------
Test system: WI-38
Assay: Effective concentration dissolved in DMSO against HRV serotype 39 in WI-38 cells by multiple-cycle CPE inhibition assay; microscopic
Type: functional, cell-based
Settings: Homo sapiens
Result type: EC50 (µM)
// note: answer is a bare numeric in µM

Can you share its EC50? I mean this molecule: O=C(Nc1ccc(SC(F)(F)F)cc1)Nc1ccc(-n2ccc(C(F)(F)F)n2)cc1
11.2

And what about the molecule Cc1csc2c(N3CCN(C(=O)Nc4ccc(OC(F)(F)F)cc4)CC3)ncnc12 ?
48

And what about the molecule CC1(C)CCc2cc(CN3CCN(c4ccc(C(F)(F)F)cn4)CC3)ccc2O1 ?
165

----------
System: WI-38
Assay: Effective concentration dissolved in DMSO against HRV serotype 39 in WI-38 cells by multiple-cycle CPE inhibition assay; microscopic
Assay type: functional, cell-based
Conditions: Homo sapiens
Result type: EC50

Please tell me: EC50 of CC1(C)CCc2cc(CN3CCN(c4ncc(C(F)(F)F)cc4Cl)CC3)ccc2O1 , system WI-38?
< 72.7 µM

And what about the compound COc1cc2c(cc1OC)C(C)N(C(=O)Nc1ccc(OC(F)(F)F)cc1)CC2 (stereo not drawn) ?
< 78 µM

And what about the compound COC(=O)c1ccc(CSc2nnc(-c3ccc4ncccc4c3)n2C)cc1 ?
< 82 µM

These data points were gathered from ChEMBL document CHEMBL1140439.
